These measurements were taken from ChEMBL document CHEMBL2413072.

# Tested on: TK-10
# experiment-description: Growth inhibition of human TK10 cells assessed as growth inhibition at 10 uM by sulforhodamine B assay
# Type: functional
# assay-conditions: read-out: GI
experimental-readout: inhibition of growth at 10 µM

# example entries with known answers
CC1(C)C[C@@H](O)[C@]2(C(=O)O)CC[C@]3(C)C(=CC[C@@H]4[C@@]5(C)CCC(=O)C(C)(C)[C@@H]5CC[C@]43C)[C@@H]2C1 :: < 10%
CC1(C)C[C@@H](O)[C@]2(C(=O)O)CC[C@]3(C)C(=CC[C@@H]4[C@@]5(C)CC[C@H](O)C(C)(C)[C@@H]5CC[C@]43C)[C@@H]2C1 :: < 10%

Entry COc1cc(/C=C2\C[C@]3(C)[C@H]4CC=C5[C@@H]6CC(C)(C)C[C@@H](O)[C@]6(C(=O)O)CC[C@@]5(C)[C@]4(C)CC[C@H]3C(C)(C)C2=O)ccc1O : reported inhibition of growth at 10 µM = ?
< 10%

---

# Test system: SNB-75
# experiment-description: Growth inhibition of human SNB75 cells by sulforhodamine B assay
# Format: functional
# assay-conditions: read-out: pTGI (converted)
experimental-readout: TGI (µM)
Use µM as the unit, but write only the number.

# example entries with known answers
CC(C)=CC(=O)O[C@@H]1CC(C)(C)C[C@H]2C3=CC[C@@H]4[C@@]5(C)CCC(=O)C(C)(C)[C@@H]5CC[C@@]4(C)[C@]3(C)CC[C@@]12C(=O)O :: 38.9
CC(C)=CC(=O)O[C@@H]1CC(C)(C)C[C@H]2C3=CC[C@@H]4[C@@]5(C)CC[C@H](O)C(C)(C)[C@@H]5CC[C@@]4(C)[C@]3(C)CC[C@@]12C(=O)O :: 40.7

Continue with the molecule presented below.
Entry C/C=C(/C)C(=O)O[C@@H]1CC(C)(C)C[C@H]2C3=CC[C@@H]4[C@@]5(C)CC[C@H](O)C(C)(C)[C@@H]5CC[C@@]4(C)[C@]3(C)CC[C@@]12C(=O)O : reported TGI = ?
5.37

---

// values below are reported CC50
# Test system: IGROV-1
# experiment-description: Growth inhibition of human IGROV1 cells by sulforhodamine B assay
# Type: functional
# assay-conditions: read-out: pLC50 (the source's name) (converted)

# example entries with known answers
CC(C)=CC(=O)O[C@@H]1CC(C)(C)C[C@H]2C3=CC[C@@H]4[C@@]5(C)CC[C@H](O)C(C)(C)[C@@H]5CC[C@@]4(C)[C@]3(C)CC[C@@]12C(=O)O :: > 100 µM
C/C=C(/C)C(=O)O[C@@H]1CC(C)(C)C[C@H]2C3=CC[C@@H]4[C@@]5(C)CCC(=O)C(C)(C)[C@@H]5CC[C@@]4(C)[C@]3(C)CC[C@@]12C(=O)O :: > 100 µM

Entry CC(C)=CC(=O)O[C@@H]1CC(C)(C)C[C@H]2C3=CC[C@@H]4[C@@]5(C)CCC(=O)C(C)(C)[C@@H]5CC[C@@]4(C)[C@]3(C)CC[C@@]12C(=O)O : reported CC50 = ?
> 100 µM

---

# Test system: HT-29
# experiment-description: Growth inhibition of human HT-29 cells by sulforhodamine B assay
# Type: functional
# assay-conditions: read-out: pLC50 (converted)
// values below are reported LC50 (50% cell kill)

CC(C)=CC(=O)O[C@@H]1CC(C)(C)C[C@H]2C3=CC[C@@H]4[C@@]5(C)CC[C@H](O)C(C)(C)[C@@H]5CC[C@@]4(C)[C@]3(C)CC[C@@]12C(=O)O :: > 100 µM
C/C=C(/C)C(=O)O[C@@H]1CC(C)(C)C[C@H]2C3=CC[C@@H]4[C@@]5(C)CCC(=O)C(C)(C)[C@@H]5CC[C@@]4(C)[C@]3(C)CC[C@@]12C(=O)O :: > 100 µM

Entry CC(C)=CC(=O)O[C@@H]1CC(C)(C)C[C@H]2C3=CC[C@@H]4[C@@]5(C)CCC(=O)C(C)(C)[C@@H]5CC[C@@]4(C)[C@]3(C)CC[C@@]12C(=O)O : reported LC50 (50% cell kill) = ?
> 100 µM

---

# Test system: LOX IMVI
# experiment-description: Growth inhibition of human LOXIMVI cells by sulforhodamine B assay
# Type: functional
# assay-conditions: read-out: LC50 (the source's name)
// values below are reported CC50

# example entries with known answers
C/C=C(/C)C(=O)O[C@@H]1CC(C)(C)C[C@H]2C3=CC[C@@H]4[C@@]5(C)CCC(=O)C(C)(C)[C@@H]5CC[C@@]4(C)[C@]3(C)CC[C@@]12C(=O)O [LANTADENE A] :: > 100 µM
CC(C)=CC(=O)O[C@@H]1CC(C)(C)C[C@H]2C3=CC[C@@H]4[C@@]5(C)CCC(=O)C(C)(C)[C@@H]5CC[C@@]4(C)[C@]3(C)CC[C@@]12C(=O)O :: > 100 µM

Entry CC(C)=CC(=O)O[C@@H]1CC(C)(C)C[C@H]2C3=CC[C@@H]4[C@@]5(C)CC[C@H](O)C(C)(C)[C@@H]5CC[C@@]4(C)[C@]3(C)CC[C@@]12C(=O)O [Reduced Lantadene B] : reported CC50 = ?
> 100 µM

---

# System: K562
# experiment-description: Growth inhibition of human K562 cells by sulforhodamine B assay
# Format: functional
# assay-conditions: read-out: pTGI (converted)
experimental-readout: TGI

# example entries with known answers
CC(C)=CC(=O)O[C@@H]1CC(C)(C)C[C@H]2C3=CC[C@@H]4[C@@]5(C)CCC(=O)C(C)(C)[C@@H]5CC[C@@]4(C)[C@]3(C)CC[C@@]12C(=O)O :: > 100 µM
CC1(C)C[C@@H](O)[C@]2(C(=O)O)CC[C@]3(C)C(=CC[C@@H]4[C@@]5(C)C/C(=C\C=C\c6ccccc6)C(=O)C(C)(C)[C@@H]5CC[C@]43C)[C@@H]2C1 :: > 100 µM

Continue with the compound presented below.
Entry C/C=C(/C)C(=O)O[C@@H]1CC(C)(C)C[C@H]2C3=CC[C@@H]4[C@@]5(C)CCC(=O)C(C)(C)[C@@H]5CC[C@@]4(C)[C@]3(C)CC[C@@]12C(=O)O [LANTADENE A] : reported TGI = ?
> 100 µM
